Source: the supplement of paper PMC10567573

B1: KRT18 (parent)
chain: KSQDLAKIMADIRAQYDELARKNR

variants of: B1; experiment: protein stability index of a GFP-peptide fusion (GPS, HEK-293T) (PSI 1-6); higher = more stable; details: c terminus: a fixed tail appended;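 note: lentivirally expressed fusions sorted by FACS into six bins by GFP to DsRed ratio, PSI derived from sequencing read proportions per bin multiplied by bin number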
MEASURE: protein stability index

Any idea what its protein stability index is? The variant is Q15M
2.14

Ok, now R21C
2.68

Proceed to D17N
2.65

Then this variant: Y16I
3.08

Entry R24H please
2.81

Also, K22P please.
2.85

Next up: A6F
2.17

Continue with D11R
2.85

Same read-out for K7F ?
1.9

Another: Y16R
3.79

Next up: I8G
4.54

What do we get for M9F ?
2.77

Query S2E next
3.02

Proceed to S2T
2.7

Same question for L19K please.
3.74

Entry E18T please
2.35

Param item: N23M
2.02

Same read-out for M9H ?
3.68

Here is the next variant: E18N
2.62

Next entry: A20F
2.69

Do the same for K1L please
2.88

Repeat for the following variant: E18D
2.16
